Source of measurements: ChEMBL document CHEMBL4229440

target.desc: Tyrosine-protein kinase JAK3 (Homo sapiens)
Sequence (P52333 whole entry): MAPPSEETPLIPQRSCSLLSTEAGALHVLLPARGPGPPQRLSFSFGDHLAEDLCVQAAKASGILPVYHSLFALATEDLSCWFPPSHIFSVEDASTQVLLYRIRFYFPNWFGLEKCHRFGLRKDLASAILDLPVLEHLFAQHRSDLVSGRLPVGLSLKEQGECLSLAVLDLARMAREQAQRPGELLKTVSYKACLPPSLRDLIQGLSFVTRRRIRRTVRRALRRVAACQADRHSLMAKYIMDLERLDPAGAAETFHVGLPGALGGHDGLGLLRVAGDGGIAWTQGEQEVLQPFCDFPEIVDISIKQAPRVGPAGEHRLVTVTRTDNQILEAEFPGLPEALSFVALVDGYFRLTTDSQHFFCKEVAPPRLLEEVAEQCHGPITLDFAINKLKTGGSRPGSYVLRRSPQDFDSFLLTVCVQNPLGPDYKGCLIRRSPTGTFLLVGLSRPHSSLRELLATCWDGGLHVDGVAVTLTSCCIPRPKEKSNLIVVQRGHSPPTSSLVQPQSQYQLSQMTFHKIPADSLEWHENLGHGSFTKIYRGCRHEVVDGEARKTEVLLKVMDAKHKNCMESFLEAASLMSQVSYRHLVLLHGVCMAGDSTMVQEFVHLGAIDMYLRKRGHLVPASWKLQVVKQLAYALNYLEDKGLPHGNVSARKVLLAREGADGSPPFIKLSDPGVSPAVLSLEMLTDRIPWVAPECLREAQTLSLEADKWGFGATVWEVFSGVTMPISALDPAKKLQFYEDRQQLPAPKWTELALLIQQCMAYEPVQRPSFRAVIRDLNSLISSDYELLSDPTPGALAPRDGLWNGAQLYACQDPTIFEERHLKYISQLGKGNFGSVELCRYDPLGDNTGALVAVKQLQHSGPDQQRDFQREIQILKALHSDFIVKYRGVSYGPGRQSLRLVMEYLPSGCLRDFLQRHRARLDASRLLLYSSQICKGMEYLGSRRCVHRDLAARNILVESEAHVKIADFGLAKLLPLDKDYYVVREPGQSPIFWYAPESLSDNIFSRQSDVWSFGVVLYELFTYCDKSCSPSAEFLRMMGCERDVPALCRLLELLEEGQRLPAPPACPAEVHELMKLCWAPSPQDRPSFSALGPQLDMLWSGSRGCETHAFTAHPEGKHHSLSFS
test: Inhibition of recombinant human N-terminal GST-tagged JAK3 (781-end residues) expressed in baculovirus infected Sf9 cells using poly (4:1 Glu, Tyr) peptide as substrate after 60 mins by ADP-Glo assay
Quick reference for IC50 among some compounds
experimental.readout: IC50 (nM)

INSERT INTO results (compound, experimental_readout, bound_type, observed_result) VALUES
  ('C=CC(=O)Nc1cccc(Nc2nc(Nc3ccc(OCC(=O)NC(C)C(=O)OC)cc3)ncc2Cl)c1 (centres undefined)', 'IC50', '>', 500),
  ('C=CC(=O)Nc1cccc(Nc2nc(Nc3ccc(OCC(=O)NCC(=O)OC)cc3)ncc2Cl)c1', 'IC50', '=', 496),
  ('C=CC(=O)Nc1cccc(Nc2nc(Nc3ccc(OCC(=O)N4CCCC4C(=O)OC)cc3)ncc2Cl)c1 (centres undefined)', 'IC50', '=', 196),
  ('C=CC(=O)Nc1cccc(Nc2nc(Nc3ccc(OCC(=O)NCC(=O)O)cc3)ncc2Cl)c1', 'IC50', '>', 500);

###

target.desc: Tyrosine-protein kinase BTK (Homo sapiens, UniProt Q06187)
Sequence (Q06187 whole entry): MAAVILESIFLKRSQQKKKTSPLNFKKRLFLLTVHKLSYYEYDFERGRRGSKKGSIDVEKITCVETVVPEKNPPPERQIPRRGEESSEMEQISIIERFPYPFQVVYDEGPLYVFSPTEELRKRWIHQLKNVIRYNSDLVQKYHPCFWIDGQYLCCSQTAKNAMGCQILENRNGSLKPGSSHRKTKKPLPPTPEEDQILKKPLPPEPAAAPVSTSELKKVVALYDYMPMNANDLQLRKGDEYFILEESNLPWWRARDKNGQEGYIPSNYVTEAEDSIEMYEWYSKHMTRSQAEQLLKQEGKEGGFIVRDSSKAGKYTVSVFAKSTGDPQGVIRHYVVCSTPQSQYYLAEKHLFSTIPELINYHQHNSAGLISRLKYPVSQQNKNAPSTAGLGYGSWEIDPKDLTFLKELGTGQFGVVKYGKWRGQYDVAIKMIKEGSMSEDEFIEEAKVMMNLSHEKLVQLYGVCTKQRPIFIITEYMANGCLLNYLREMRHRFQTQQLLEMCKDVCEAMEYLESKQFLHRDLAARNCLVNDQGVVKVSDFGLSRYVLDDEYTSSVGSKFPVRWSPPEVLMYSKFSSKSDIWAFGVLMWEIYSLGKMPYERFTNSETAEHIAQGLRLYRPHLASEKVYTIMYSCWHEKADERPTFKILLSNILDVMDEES
test: Inhibition of full length recombinant human N-terminal His-tagged BTK expressed in baculovirus infected Sf9 cells using poly (4:1 Glu, Tyr) peptide as substrate after 60 mins by ADP-Glo assay
# IC50 per entry
experimental.readout: IC50 (nM)

INSERT INTO results (compound, observed_result) VALUES
  ('C=CC(=O)Nc1cccc(Nc2nc(Nc3ccc(OCC(=O)N4CCCC4C(=O)OC)cc3)ncc2Cl)c1 (centres undefined)', 8.7),
  ('C=CC(=O)Nc1cccc(Nc2nc(Nc3ccc(OCC(=O)NC(C)C(=O)OC)cc3)ncc2Cl)c1 (centres undefined)', 8.7),
  ('C=CC(=O)Nc1cccc(Nc2nc(Nc3ccc(OCC(=O)NCC(=O)O)cc3)ncc2Cl)c1', 11.2),
  ('C=CC(=O)Nc1cccc(Nc2nc(Nc3ccc(OCC(=O)NCC(=O)OC)cc3)ncc2Cl)c1', 6.5);
